Taken from PubChem BioAssay.

experiment: human hepatoma cell viability loss – ATP luminescence, cytotoxicity control for P. falciparum antimalarial project, primary screen (AID 2303); settings: HepG2 viability, 24-48 h, at 10 µM, active compounds read high;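 note: 0% = DMSO wells and 100% = digitonin-killed cells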
inhibition: recorded values
Give just the number in %; leave the unit off.

In: Dear colleague, I am looking for the recorded inhibition of the following molecule: CC(Nc1ccc2c(c1)OCCO2)C(=O)Nc1cc(C(F)(F)F)ccc1N1CCOCC1 (centres undefined)
Out: -6

In: Also need O=C(Nc1cccc(OC2CCN(Cc3ccccc3)CC2)c1)Nc1cccc([N+](=O)[O-])c1 , thanks.
Out: 10

In: Then what about the molecule COc1ccc2nc3cc(Cl)ccc3c(NCc3ccccc3)c2c1 ?
Out: 8

In: Item: Clc1cccc(CNc2nc(NCCc3cnc[nH]3)nc(NC3CCCCC3)n2)c1
Out: 17

In: Moving on to Cc1cc(NN=Cc2ccccc2Cl)c2cccc(C)c2n1
Out: 10

In: And what about the molecule COc1ccc(Cl)cc1NC(=O)CN(C)C(=O)c1cnn(-c2ccccc2)n1 ?
Out: -6

In: Please answer likewise for CC(C)c1ccc(NC(=O)c2ccc(C(=O)NC3CCN(Cc4ccccc4)CC3)cc2)cc1
Out: 30

In: Same for O=C(NC1CCN(CCN2CCC(c3cn(CCO)c4ccccc34)CC2)CC1)c1ccc(-c2ccc(C(F)(F)F)cc2)cc1
Out: 30

In: Note, next up: CN1CCN(CC(=O)Nc2cccc(-c3cccc(-c4nc5ccc(C(F)(F)F)cc5[nH]4)c3)c2)CC1
Out: 26

====

molecular target: Calcium-dependent protein kinase 4 (Plasmodium falciparum (isolate 3D7)) (UniProt Q8IBS5); test: PfCDPK4 kinase inhibitors, biochemical, TCAMS library (AID 1159588); conditions: recombinant PfCDPK4, Kinase-Glo ATP depletion luminescence
Sequence (Q8IBS5 whole entry, looked up): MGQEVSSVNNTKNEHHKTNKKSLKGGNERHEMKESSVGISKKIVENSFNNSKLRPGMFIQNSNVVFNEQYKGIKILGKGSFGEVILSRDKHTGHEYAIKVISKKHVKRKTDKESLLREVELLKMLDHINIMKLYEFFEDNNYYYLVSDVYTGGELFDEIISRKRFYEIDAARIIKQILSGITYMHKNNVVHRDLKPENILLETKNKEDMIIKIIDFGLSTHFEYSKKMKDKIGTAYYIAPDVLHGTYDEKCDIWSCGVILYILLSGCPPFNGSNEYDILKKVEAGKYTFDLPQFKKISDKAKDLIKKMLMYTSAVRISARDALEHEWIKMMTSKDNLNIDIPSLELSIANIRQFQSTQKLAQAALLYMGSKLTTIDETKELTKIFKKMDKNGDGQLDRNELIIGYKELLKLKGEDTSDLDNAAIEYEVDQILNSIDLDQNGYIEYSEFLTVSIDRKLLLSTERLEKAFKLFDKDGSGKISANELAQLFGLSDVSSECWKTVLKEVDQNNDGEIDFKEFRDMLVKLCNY
Measured potencies and affinities stand elsewhere. Activity calls are given as the source filed them. No cut-off is given here; in the data, nearly all actives have IC50 up to about 0.91 µM.
reportedEndpoint: outcome

Consider the following illustrative entries.
compound	outcome
CNCCNCc1cccc(-c2ccc(-c3nc4c(C)cccc4[nH]3)s2)c1	inactive
COc1cc(C=NNc2cc(C)nc3ccccc23)cc(OC)c1OC	inactive
O=C(Nc1cccc(-c2ccc(-c3nc4ccc(C(F)(F)F)cc4[nH]3)s2)c1)c1ccncc1	inactive
CC(=O)N[C@@H]1c2cc(C(C)=O)ccc2OC(C)(C)[C@@H]1O	inactive
CC(C)(C)c1ccc(CNC(=O)c2cc(CNC3CCNCC3)ccc2O)cc1	inactive
CCCCC1(c2ccc(F)cc2)NC(=O)N(CC(=O)c2cc(C)n(Cc3ccco3)c2C)C1=O (stereo unspecified)	inactive
CCN(CC)CCN(Cc1ccc(-c2ccc(C(F)(F)F)cc2)cc1)C(=O)c1c[nH]c2ccc(Br)cc12	inactive
CN1CCN(c2ccc3nc(-c4ccc(Cc5cc(Cl)ccc5OCc5ccccc5)o4)[nH]c3c2)CC1	inactive

In: What value of measured outcome is listed for Cc1ccc(C(=O)Nc2ccc(OC3CCN(CCC(C)C)C3)c(Cl)c2)cc1 (stereo unspecified) ?
Out: inactive

In: Same question, O=c1cc(NCCCNCc2cc3c(Cl)cccc3s2)[nH]c2ccccc12 this time
Out: inactive

In: Record: O=C(Nc1ccc(C(=O)Oc2cccc3ccccc23)cc1)N[C@@H](Cc1ccc(O)cc1)C(=O)NC1CCN(Cc2ccc(O)cc2)C1 (stereo partly specified)
Out: inactive

In: And CC(=O)NCCCCC1NC2(C(=O)N(Cc3ccc(C(C)(C)C)cc3)c3ccccc32)C2C(=O)N(C3CCCCC3)C(=O)C12 (stereo unspecified) ?
Out: inactive

In: Proceed to Cc1noc(C)c1-c1cccc(CNCc2ccc(-c3ccc(-c4nc5c(C)cccc5[nH]4)cc3)cc2)c1
Out: inactive

In: Next record, please: O=S(=O)(Nc1cccc(CCN2CCC(N3CCCCC3)CC2)c1)c1ccc(Oc2ccccc2)cc1
Out: inactive

In: Next up: O=C(CC1NC(=O)c2ccccc21)Nc1ccc(-c2cccc(-c3nc4ccc(C(F)(F)F)cc4[nH]3)c2)cc1 (stereo unspecified)
Out: inactive

In: Next entry: Cc1cccc2[nH]c(-c3cccc(-c4cccc(C(=O)NCCN5CCCC5)c4)c3)nc12
Out: inactive

In: Next up: CCNc1cc(C(=O)N[C@@H](Cc2ccccc2)[C@H](O)CN[C@H](C)c2ccccc2)cc(N2CCCC2=O)c1
Out: inactive

In: // repeat for Cc1noc(-c2ccc3c(c2)CCN(CCC2CCC(NC(=O)/C=C/c4cccc(Cl)c4)CC2)CC3)n1 (stereo unspecified) and report
Out: inactive

In: Now the compound CO/C(=C\C=C\c1cc2cc(Cl)c(Cl)cc2[nH]1)C(=O)NCCCN1CCN(c2ccc(OC)cc2)CC1
Out: inactive

In: Another compound to look at: COc1ccc(Cc2c(N)nc3nc(N)nc(N)c3c2C)cc1
Out: inactive
